Hey, just so you know, these numbers are from PubChem BioAssay AID2060905.

system: 282377-053-R-J1-PDC complex spheroid viability; assay: Anticancer human tumor 282377-053-R-J1-PDC patient-derived colon adenocarcinoma cell line growth inhibition [RAS]; conditions: second compound 0.1 µM; first compound 0.316 µM; stronger effect = lower value
Below: a set of entries, each annotated with reported viability, T/C.
Use % as the unit, but write only the number.

compound	viability, T/C / %
C=CC(=O)N1CCN(c2nc(OCC3CCCN3C)nc3c(F)c(-c4nc(N)cc(C)c4C(F)(F)F)c(Cl)cc23)C(C)C1 (stereo not drawn) + C#Cc1c(F)ccc2cc(O)cc(-c3ncc4c(N5CC6CCC(C5)N6)nc(OCC56CCCN5CC(F)C6)nc4c3F)c12	91.6
CCC(CC)c1cc(NC2CCC(N)C2)n2nccc2n1 (stereo not drawn) + C=CC(=O)N1CCN(c2nc(OCC3CCCN3C)nc3c(F)c(-c4nc(N)cc(C)c4C(F)(F)F)c(Cl)cc23)C(C)C1	113
Cc1nc(N2CCC3(CC2)COC(C)C3N)c(CO)nc1Sc1ccnc(N)c1Cl (stereo not drawn) + C#Cc1c(F)ccc2cc(O)cc(-c3ncc4c(N5CC6CCC(C5)N6)nc(OCC56CCCN5CC(F)C6)nc4c3F)c12	88.7

QUERY: Need viability, T/C, item CC(=O)OC12COC1CC(O)C1(C)C(=O)C(O)C3=C(C)C(OC(=O)C(O)C(NC(=O)OC(C)(C)C)c4ccccc4)CC(O)(C(OC(=O)c4ccccc4)C21)C3(C)C (stereo not drawn) + C=CC(=O)N1CCN(c2nc(OCC3CCCN3C)nc3c(F)c(-c4nc(N)cc(C)c4C(F)(F)F)c(Cl)cc23)C(C)C1
RESULT: 20.1

QUERY: Need viability, T/C, item C=CC(=O)Nc1cc(Nc2nccc(-c3cn(C)c4ccccc34)n2)c(OC)cc1N(C)CCN(C)C + C=CC(=O)N1CCN(c2nc(OCC3CCCN3C)nc3c(F)c(-c4nc(N)cc(C)c4C(F)(F)F)c(Cl)cc23)C(C)C1
RESULT: 94.7

QUERY: Need viability, T/C, item CC(Nc1ccc2c(c1)OCCn1cc(N3C(=O)OCC3C(F)F)nc1-2)C(N)=O (stereo not drawn) + C#Cc1c(F)ccc2cc(O)cc(-c3ncc4c(N5CC6CCC(C5)N6)nc(OCC56CCCN5CC(F)C6)nc4c3F)c12
RESULT: 93.1

QUERY: Need viability, T/C, item CCN1CCN(Cc2ccc(Nc3ncc(F)c(-c4cc(F)c5nc(C)n(C(C)C)c5c4)n3)nc2)CC1 + C#Cc1c(F)ccc2cc(O)cc(-c3ncc4c(N5CC6CCC(C5)N6)nc(OCC56CCCN5CC(F)C6)nc4c3F)c12
RESULT: 135

QUERY: Need viability, T/C, item Nc1ccn(C2OC(CO)C(O)C2(F)F)c(=O)n1 (stereo not drawn) + C#Cc1c(F)ccc2cc(O)cc(-c3ncc4c(N5CC6CCC(C5)N6)nc(OCC56CCCN5CC(F)C6)nc4c3F)c12
RESULT: 44.6

====

Below: a set of entries, each annotated with reported viability, T/C.
tested on: 282377-053-R-J1-PDC complex spheroid viability; experiment: Anticancer human tumor 282377-053-R-J1-PDC cell line growth inhibition [RAS]; settings: second compound 0.00949 µM; first compound 0.0316 µM; stronger effect = lower value;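 further: spheroids exposed to agents for seven days before readout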;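 on viability, T/C: luminescence viability as percent of DMSO vehicle control wells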
Use % as the unit, but write only the number.

molecule	scale.unit	viability, T/C
CCN1CCN(Cc2ccc(Nc3ncc(F)c(-c4cc(F)c5nc(C)n(C(C)C)c5c4)n3)nc2)CC1 + CCn1c(-c2cccnc2C(C)OC)c2c3cc(ccc31)N1CCOC(CC(NC(=O)C(C(C)C)N(C)C(=O)C3(F)CCN(C(=O)C#CC(C)(C)N(C)C)CC3)C(=O)N3CCCC(N3)C(=O)OCC(C)(C)C2)C1	%	122
C=CC(=O)N1CCN(c2nc(OCC3CCCN3C)nc3c(F)c(-c4nc(N)cc(C)c4C(F)(F)F)c(Cl)cc23)C(C)C1 (stereo not given) + CCn1c(-c2cccnc2C(C)OC)c2c3cc(ccc31)N1CCOC(CC(NC(=O)C(C(C)C)N(C)C(=O)C3(F)CCN(C(=O)C#CC(C)(C)N(C)C)CC3)C(=O)N3CCCC(N3)C(=O)OCC(C)(C)C2)C1	%	83.6
CCC(CC)c1cc(NC2CCC(N)C2)n2nccc2n1 (stereo not given) + CCn1c(-c2cccnc2C(C)OC)c2c3cc(ccc31)N1CCOC(CC(NC(=O)C(C(C)C)N(C)C(=O)C3(F)CCN(C(=O)C#CC(C)(C)N(C)C)CC3)C(=O)N3CCCC(N3)C(=O)OCC(C)(C)C2)C1	%	114
C=CC(=O)Nc1cc(Nc2nccc(-c3cn(C)c4ccccc34)n2)c(OC)cc1N(C)CCN(C)C + CCn1c(-c2cc(N3CCN(C)CC3)cnc2C(C)OC)c2c3cc(ccc31)-c1csc(n1)CC(NC(=O)C1CC1C)C(=O)N1CCCC(N1)C(=O)OCC(C)(C)C2	%	97.5
Nc1ccn(C2OC(CO)C(O)C2(F)F)c(=O)n1 (stereo not given) + CCn1c(-c2cccnc2C(C)OC)c2c3cc(ccc31)N1CCOC(CC(NC(=O)C(C(C)C)N(C)C(=O)C3(F)CCN(C(=O)C#CC(C)(C)N(C)C)CC3)C(=O)N3CCCC(N3)C(=O)OCC(C)(C)C2)C1	%	99.3

QUERY: Need viability, T/C, item CC(Nc1ccc2c(c1)OCCn1cc(N3C(=O)OCC3C(F)F)nc1-2)C(N)=O (stereo not given) + CCn1c(-c2cc(N3CCN(C)CC3)cnc2C(C)OC)c2c3cc(ccc31)-c1csc(n1)CC(NC(=O)C1CC1C)C(=O)N1CCCC(N1)C(=O)OCC(C)(C)C2
RESULT: 103

QUERY: Need viability, T/C, item CC(C)n1nc(-c2ccc3oc(N)nc3c2)c2c(N)ncnc21 + CCn1c(-c2cc(N3CCN(C)CC3)cnc2C(C)OC)c2c3cc(ccc31)-c1csc(n1)CC(NC(=O)C1CC1C)C(=O)N1CCCC(N1)C(=O)OCC(C)(C)C2
RESULT: 54.3

QUERY: Need viability, T/C, item CC(=O)OC12COC1CC(O)C1(C)C(=O)C(O)C3=C(C)C(OC(=O)C(O)C(NC(=O)OC(C)(C)C)c4ccccc4)CC(O)(C(OC(=O)c4ccccc4)C21)C3(C)C (stereo not given) + CCn1c(-c2cc(N3CCN(C)CC3)cnc2C(C)OC)c2c3cc(ccc31)-c1csc(n1)CC(NC(=O)C1CC1C)C(=O)N1CCCC(N1)C(=O)OCC(C)(C)C2
RESULT: 50.1

QUERY: Need viability, T/C, item CC(Nc1ccc2c(c1)OCCn1cc(N3C(=O)OCC3C(F)F)nc1-2)C(N)=O (stereo not given) + CCn1c(-c2cccnc2C(C)OC)c2c3cc(ccc31)N1CCOC(CC(NC(=O)C(C(C)C)N(C)C(=O)C3(F)CCN(C(=O)C#CC(C)(C)N(C)C)CC3)C(=O)N3CCCC(N3)C(=O)OCC(C)(C)C2)C1
RESULT: 118

QUERY: Need viability, T/C, item CC(C)n1nc(-c2ccc3oc(N)nc3c2)c2c(N)ncnc21 + CCn1c(-c2cccnc2C(C)OC)c2c3cc(ccc31)N1CCOC(CC(NC(=O)C(C(C)C)N(C)C(=O)C3(F)CCN(C(=O)C#CC(C)(C)N(C)C)CC3)C(=O)N3CCCC(N3)C(=O)OCC(C)(C)C2)C1
RESULT: 67.8

====

Below: a set of entries, each annotated with reported IC50.
test system: 282377-053-R-J1-PDC complex spheroid viability; assay: Anticancer human tumor 282377-053-R-J1-PDC cell line growth inhibition [RAS]; conditions: curve of first compound; second compound 1 µM;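 further: spheroids exposed to agents for seven days before readout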
Use µM as the unit, but write only the number.

A selection of reference data follows.
compound	IC50, µM
CC1(O)CCCC1n1c(=O)c(C(F)F)cc2cnc(NC3CCN(S(C)(=O)=O)CC3)nc21 (configuration not stated) + C#Cc1c(F)ccc2cc(O)cc(-c3ncc4c(N5CC6CCC(C5)N6)nc(OCC56CCCN5CC(F)C6)nc4c3F)c12	6.13
CC1(O)CCCC1n1c(=O)c(C(F)F)cc2cnc(NC3CCN(S(C)(=O)=O)CC3)nc21 (configuration not stated) + C=CC(=O)N1CCN(c2nc(OCC3CCCN3C)nc3c(F)c(-c4nc(N)cc(C)c4C(F)(F)F)c(Cl)cc23)C(C)C1	6.48

Then this compound:
QUERY: Need IC50, item Nc1ccn(C2OC(CO)C(O)C2(F)F)c(=O)n1 (configuration not stated) + C=CC(=O)N1CCN(c2nc(OCC3CCCN3C)nc3c(F)c(-c4nc(N)cc(C)c4C(F)(F)F)c(Cl)cc23)C(C)C1
RESULT: 0.58

====

Below: a set of entries, each annotated with reported viability, T/C.
Tested on: 282377-053-R-J1-PDC complex spheroid viability
Test: Anticancer human tumor 282377-053-R-J1-PDC cell line growth inhibition [RAS];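 further: spheroids exposed to agents for seven days before readout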;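 on viability, T/C: luminescence viability as percent of DMSO vehicle control wells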
Conditions: second compound 0.00316 µM; first compound 1 µM; stronger effect = lower value
Text: RAS pathway inhibitors in Combinations in Complex Spheroids A high-throughput screen of multi-cell type tumor spheroids was designed to identify active combinations of RAS pathway inhibitors and targeted small molecules. Complex spheroids include a stromal component modeled by human endothelial cells (HUVEC) and fibroblasts modeled by human mesenchymal stem cells (MSCs). […] Compounds. […] If the clinical Cmax for an agent had not been determined, the highest concentration tested was 10 microM. […]
Use % as the unit, but write only the number.

compound	tested.target	viability, T/C / %
Cc1nc(N2CCC3(CC2)COC(C)C3N)c(CO)nc1Sc1ccnc(N)c1Cl (stereo not drawn) + C=CC(=O)N1CCN(c2nc(OCC3CCCN3C)nc3c(F)c(-c4nc(N)cc(C)c4C(F)(F)F)c(Cl)cc23)C(C)C1	282377-053-R-J1-PDC complex spheroid viability	103

QUERY: Need viability, T/C, item C=CC(=O)Nc1cc(Nc2nccc(-c3cn(C)c4ccccc34)n2)c(OC)cc1N(C)CCN(C)C + C=CC(=O)N1CCN(c2nc(OCC3CCCN3C)nc3c(F)c(-c4nc(N)cc(C)c4C(F)(F)F)c(Cl)cc23)C(C)C1
RESULT: 114

QUERY: Need viability, T/C, item CC(Nc1ccc2c(c1)OCCn1cc(N3C(=O)OCC3C(F)F)nc1-2)C(N)=O (stereo not drawn) + C=CC(=O)N1CCN(c2nc(OCC3CCCN3C)nc3c(F)c(-c4nc(N)cc(C)c4C(F)(F)F)c(Cl)cc23)C(C)C1
RESULT: 82.6
